assay: Cmax in NMRI mouse brain at 10 mg/kg, po; assay type: ADME, organism-based; set-up: dose 10 mg/kg, route oral
TEST READOUT: Cmax (ng/g)
State the answer as a number, implicitly in ng/g.

Query: Fill in: Cmax of Nc1nc(N)c2c(OCC3CCN(Cc4ccccc4F)CC3)cccc2n1 is ___
Result: 765

====

assay: Half life in NMRI mouse brain at 10 mg/kg, po; type: ADME, organism-based; parameters: dose 10 mg/kg, route oral
TEST READOUT: half-life (h)
State the answer as a number, implicitly in h.

Query: Fill in: half-life of Nc1nc(N)c2c(OCC3CCN(Cc4ccccc4F)CC3)cccc2n1 is ___
Result: 18.8
